- assayedSystem: Lysosomal acid glucosylceramidase (Homo sapiens) (UniProt P04062)
- Sequence (P04062 whole entry, looked up): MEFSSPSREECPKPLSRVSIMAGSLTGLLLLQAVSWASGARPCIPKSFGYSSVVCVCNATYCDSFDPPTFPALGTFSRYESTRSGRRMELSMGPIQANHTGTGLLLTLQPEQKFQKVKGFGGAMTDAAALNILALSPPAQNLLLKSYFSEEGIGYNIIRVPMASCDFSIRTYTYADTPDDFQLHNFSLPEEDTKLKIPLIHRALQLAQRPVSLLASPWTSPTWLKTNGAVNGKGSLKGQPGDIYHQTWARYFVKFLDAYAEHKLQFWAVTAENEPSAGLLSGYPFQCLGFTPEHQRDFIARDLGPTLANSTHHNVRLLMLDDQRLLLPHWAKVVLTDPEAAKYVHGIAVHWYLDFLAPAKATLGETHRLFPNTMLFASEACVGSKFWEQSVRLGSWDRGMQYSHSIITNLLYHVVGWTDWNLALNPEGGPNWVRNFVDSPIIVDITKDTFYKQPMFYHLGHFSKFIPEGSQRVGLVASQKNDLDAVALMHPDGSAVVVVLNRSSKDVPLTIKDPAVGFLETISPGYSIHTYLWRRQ
- assayMethodText: Glucocerebrosidase-p2 (AID 348); further: potency means the concentration at half of the fitted maximal effect
- conditionDescription: purified GBA, blue fluorogenic substrate, 40 min
Active and inactive are the calls of the source. No stated cut-off is given here; in the data, active means potency below about 10 µM; inactive means the rest.
Answer with one of the outcomes active, inactive

Write down the call the test reported for this molecule. Item: O=C(O)c1ccc(C(=O)Nc2cccc3ccccc23)c(C(=O)O)c1
inactive

Which outcome did this test record for the molecule Nc1cc(C(=O)O)[nH]c(=O)n1 ?
inactive

Name the outcome recorded for C[C@@H]1CCCC(CC(=O)O)(CC(=O)O)C1 in the assay.
inactive

Can you look up the reported call for CC(CC(=O)O)(CC(=O)O)C(=O)O for me?
inactive

Which result was noted for this molecule in the test: C[C@]12CC[C@H]3c4ccc(O)cc4CC[C@@H]3[C@H]1CC[C@@H]2OC(=O)CCc1ccccc1
inactive

Per the records of this test, what outcome belongs to C/C(=N/O)[C@@H]1C[C@H](CC(=O)O)C1(C)C ?
inactive

Assay outcome for O=C1Nc2ccccc2C1=Nc1cccc2ncccc12 : what was it?
inactive

// return assay outcome for CC(C)(C)c1ccc(CN2CCN([C@H](c3ccccc3)c3ccc(Cl)cc3)CC2)cc1
inactive

// param item: CC(C)(C)CC(C)(C)c1cc(O)c(O)c(CN2CCCCC2)c1 ; yields the recorded call
inactive

Tell me the assay call for COc1ccc2c(c1)[n+]([O-])c(/C(C)=N/NC(N)=S)c(C)[n+]2[O-] please.
inactive

What outcome does the record of this test show for NNC(=O)[C@@H](O)[C@H](O)C(=O)NN ?
inactive

Please share the test call associated with CC(C)c1ccc(/C(C(=O)O)=C(\O)C(=O)O)cc1 .
inactive

Dear all, I need the recorded test outcome for O=C(O)CCc1nc(-c2ccccc2-n2cccc2)no1 , thank you.
inactive

What call does the record list for O=C(O)CCN1C(=S)CSC1=S ?
inactive

Check the results log: what was the call for Cc1cc(OCC(=O)O)c(Cl)cc1Cl ?
inactive

Hey, what did the test say about Nc1ccc(Cc2ccc(N)c(C(=O)O)c2)cc1C(=O)O ?
inactive

Outcome? COCCn1c(=O)c(CCc2ccccc2)nc2cnc(Oc3cccc(Cl)c3)nc21
inactive

Given Cc1ccn2c(CCc3nnc4cc(C)ccn34)nnc2c1 , state the outcome it received in this test.
inactive

What call does the record list for C[N+](C)(C)c1ncnc2c1ncn2[C@@H]1CCCCO1 ?
inactive

Give the logged outcome of this assay for the following molecule: CC(=O)Nc1cc(CN2CCCCC2)c(O)c2ncccc12
inactive

Any idea what this test logged for c1ccc(CO[C@H]2NCCN2Cc2ccccc2)cc1 ?
inactive

Tell me the assay call for Cc1c(N2CCCC2)cc2c(c1NC(=O)c1ccccc1Cl)C(C)(C)CC2(C)C please.
inactive

Hi, sorry to bother you, what did the test record for O=C(CSc1nc2ccc([N+](=O)[O-])cc2s1)c1ccc2ccccc2c1 ?
inactive

Given CC[C@H](C(=O)c1cccs1)C(O)(C(F)(F)F)C(F)(F)F , state the outcome it received in this test.
inactive

// return assay outcome for Oc1c(C(O)(c2ccccc2)c2ccc3ccccc3c2O)ccc2ccccc12
inactive

Hey, what did the test say about CSc1nc(C)cc(Nc2ccc(O)c(CN3CCCCC3)c2)n1 ?
inactive

Assay result, entry O=C(O)CSc1cc(-c2ccccc2)nc2ccccc12 — outcome?
inactive

Test call, this molecule: CS[C@@H](CC(=O)O)C(=O)O
inactive

# outcome recorded in this test, key = CC(CCC(=O)O)(c1cc(Br)c(O)c(Br)c1)c1cc(Br)c(O)c(Br)c1
inactive

Tell me the assay call for Nc1ncnc2c1ncn2CCCCC(=O)O please.
inactive

Status in this test for CCCCC[C@@H](O)[C@@H]1C(=O)O[C@@H](C)[C@@H](O)\C=C/C=C\C=C/C=C\C=C(\C)[C@H](O)C[C@H](O)C[C@H](O)C[C@H](O)C[C@H](O)C[C@H](O)C[C@@H]1O ?
inactive

Dear colleague, could you share the recorded outcome for C[C@H]1CC(C)(C)C[C@@](OCCN2CCCCC2)(c2ccccc2)C1 when you have a moment?
inactive

Recorded call for Cc1[nH]c(N)nc(=S)c1CCC(=O)O ?
inactive

Per the records of this test, what outcome belongs to CC(=O)O[C@H]1CC[C@@]2(C)[C@@H](CC[C@H]3[C@H]2CC(=O)[C@@]2(C)[C@@H]3C[C@H]3CC(C)=CC(=O)[C@H]32)C1 ?
inactive

I would be grateful if you could indicate the recorded call for Cc1cc(CN2CCCCC2)c(O)c(CN2CCCCC2)c1 .
inactive

Record lookup: outcome of this test for O[C@@H](COc1cccc2ccccc12)CN1CCOCC1 ?
inactive

What outcome does the record of this test show for Cc1cccc(C(=O)O)c1C[C@H]1NCC[C@H]2c3ccccc3N[C@@H]12 ?
inactive

Field: outcome | Entry: CN(C)Cc1cc(Cl)c(O)c(CN(C)C)c1
inactive

Please share the test call associated with S=c1nc(-c2nc(=S)[nH]c3c2CCCCCCCCCC3)c2c([nH]1)CCCCCCCCCC2 .
inactive

Each molecule tested received a call. Report the one for Nc1nc2c(ncn2[C@@H]2C=C[C@@H](CO)C2)c(=O)[nH]1 .
inactive

Write down the call the test reported for this molecule. Item: O=C(O)/C(Cc1ccc([N+](=O)[O-])cc1)=N/O
inactive

Could you please tell me the result logged for CCn1c2ccccc2c2nnc(NCCCO)nc21 in this assay?
inactive

Status in this test for Ic1ccc2c(c1)N(c1ccccc1)c1cc(Nc3ccc4nc5ccc(I)cc5[n+](-c5ccccc5)c4c3)ccc1N2 ?
active

Hi, sorry to bother you, what did the test record for O=C(NNS(=O)(=O)c1ccccc1)c1cccnc1 ?
inactive

Recorded test outcome, item Cc1cc(Cl)ccc1OCC(=O)Oc1c(Cl)c(Cl)c(Cl)c(Cl)c1Cl
inactive
